- target.of.assay: RORβ (Rattus norvegicus)
- Construct: rRORβ (Pro 205-end); expressed in transfected cells
- Sequence (P45446 216-470): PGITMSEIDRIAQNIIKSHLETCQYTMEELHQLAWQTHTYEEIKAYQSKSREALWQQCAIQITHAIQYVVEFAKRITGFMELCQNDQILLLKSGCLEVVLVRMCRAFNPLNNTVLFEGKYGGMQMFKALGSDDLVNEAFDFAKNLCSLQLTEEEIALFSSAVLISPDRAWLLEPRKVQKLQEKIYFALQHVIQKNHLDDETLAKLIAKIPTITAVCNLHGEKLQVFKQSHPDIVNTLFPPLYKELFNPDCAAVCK
- assay.remarks: Gal4-RORβ-LBD UAS-luciferase reporter assay in TRex-CHO-K1 cells (doxycycline-stimulated)
- Format: cell-based
- cond: read-out: IC50 (μM, N=4) ROR-Beta; library 2520
Please respond with reported IC50 for every item in the list.
Numbers only, in µM.

Consider the reported IC50 for these compounds:
{"compound": "CCOc1ccc(C[C@H]2CN=C(NC(=O)C(C)C)N2CC2CCCCC2)cc1", "IC50 / µM": 6.57}
{"compound": "CCOc1ccc(CC2CN=C(NC(=O)Cc3ccc(OC)cc3)N2CCC(C)c2ccccc2)cc1 (mixture of isomers)", "IC50 / µM": 5.46}
{"compound": "CCOc1ccc(C[C@H]2CN=C(NC(=O)Cc3ccc(OC)cc3)N2CC2CCCCC2)cc1", "IC50 / µM": 5.21}
{"compound": "CCC(C(=O)NC1=NCC(Cc2ccc3ccccc3c2)N1CCC1CC2CCC1C2)c1ccccc1 (mixture of isomers)", "IC50 / µM": 7.3}
{"compound": "CCC(C(=O)NC1=NCC(Cc2ccccc2)N1CC1CCCCC1)c1ccccc1 (mixture of isomers)", "IC50 / µM": 4.89}

Can you give me IC50 for all of these, one by one?
1. CC(C)C(=O)NC1=NCC(Cc2ccccc2)N1CCC(C)c1ccccc1 (mixture of isomers)
2. CCC(C(=O)NC1=NCC(C(C)CC)N1CC1CCCCC1)c1ccccc1 (mixture of isomers)

Out:
1. 6.17
2. 3.66

---

- target.of.assay: RORγ (Mus musculus)
- Construct: mRORγ (Pro-261-end); expressed in transfected cells
- assay.remarks: Gal4-RORγ-LBD UAS-luciferase reporter assay in TRex-CHO-K1 cells (doxycycline-stimulated)
- Type: cell-based
- cond: IC50 (μM) (N=4) RORγ, individual controls of library 1295, second confirmatory dose response, Figure 2
Hi! Could you tag entries with IC50 below 8 µM as 1.0, and those at or above as 0.0? Much appreciated.

Would you please look over these solved cases?
{"molecule": "CC1CCC(C(=O)NC2=NC[C@H](Cc3ccccc3)N2CCc2ccccc2)CC1 (stereo partly shown) [1295.306]", "group.label": 0.0}
{"molecule": "CC(CC(=O)NC1=NC[C@H](Cc2ccccc2)N1CCc1ccccc1)c1ccccc1 (stereo partly shown) [1295.274]", "group.label": 1.0}
{"molecule": "CC1CCC(CN2C(NC(=O)Cc3ccccc3)=NC[C@@H]2Cc2ccccc2)CC1 (stereo partly shown) [1295.269]", "group.label": 1.0}

// next entry
In: Is the reported IC50 for O=C(Cc1ccccc1)NC1=NC[C@H](Cc2ccccc2)N1CCC1CC2CCC1C2 (stereo partly shown) [1295.270] strictly below 8 µM?
Out: 1.0

---

- target.of.assay: RORα (Homo sapiens)
- Construct: hRORα (Pro-211-end); expressed in transfected cells
- Sequence (P35398 266-523): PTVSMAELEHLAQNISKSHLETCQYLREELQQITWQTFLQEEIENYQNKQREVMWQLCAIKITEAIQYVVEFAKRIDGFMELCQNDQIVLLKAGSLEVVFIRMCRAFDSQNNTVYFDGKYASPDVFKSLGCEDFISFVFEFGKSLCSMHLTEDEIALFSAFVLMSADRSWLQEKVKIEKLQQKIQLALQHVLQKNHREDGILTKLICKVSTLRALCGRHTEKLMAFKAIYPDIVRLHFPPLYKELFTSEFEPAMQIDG
- assay.remarks: Gal4-RORα-LBD UAS-luciferase reporter assay in TRex-CHO-K1 cells (doxycycline-stimulated)
- Type: cell-based
- cond: read-out: IC50 (μM, N=4) ROR-Alpha; library 2520
- Method: The Gal4-DBD-ROR-LBD fusion proteins were subcloned in the pcDNA4/TO expression vector (Thermo Scientific) and transfected into TRex-CHO-K1 cells (Thermo Scientific) for tetracycline-controlled expression of the corresponding ROR proteins. […] Luminescence was normalized by the fluorescence intensity and the percentage of inhibition was calculated with respect to control cells stimulated with doxycycline in the presence of solvent control (0.1% DMF). […]
recorded.metric: IC50 (µM)
Give bare numbers, in µM.

{"molecule": "CCC(C(=O)NC1=NCC(C(C)CC)N1CC1CCCCC1)c1ccccc1 (mixture of isomers)", "recorded.metric": "IC50", "value.observed": 5.97}

Can you give me IC50 for all of these, one by one?
1. CCC(C(=O)NC1=NCC(Cc2ccccc2)N1CC1CCCCC1)c1ccccc1 (mixture of isomers)
2. CCOc1ccc(C[C@H]2CN=C(NC(=O)C(C)C)N2CC2CCCCC2)cc1
3. CCC(C(=O)NC1=NCC(Cc2ccc3ccccc3c2)N1CCC1CC2CCC1C2)c1ccccc1 (mixture of isomers)
4. CC(C)C(=O)NC1=NCC(Cc2ccccc2)N1CCC(C)c1ccccc1 (mixture of isomers)
5. CCOc1ccc(CC2CN=C(NC(=O)Cc3ccc(OC)cc3)N2CCC(C)c2ccccc2)cc1 (mixture of isomers)
6. CCOc1ccc(C[C@H]2CN=C(NC(=O)Cc3ccc(OC)cc3)N2CC2CCCCC2)cc1

Out:
[6.61, 9.61, 10.3, 8.48, 5.82, 5.4]

---

- target.of.assay: RORγ (Mus musculus, UniProt P51450)
- Construct: mRORγ (Pro-261-end); expressed in transfected cells
- Sequence (P51450 261-516 limits assumed): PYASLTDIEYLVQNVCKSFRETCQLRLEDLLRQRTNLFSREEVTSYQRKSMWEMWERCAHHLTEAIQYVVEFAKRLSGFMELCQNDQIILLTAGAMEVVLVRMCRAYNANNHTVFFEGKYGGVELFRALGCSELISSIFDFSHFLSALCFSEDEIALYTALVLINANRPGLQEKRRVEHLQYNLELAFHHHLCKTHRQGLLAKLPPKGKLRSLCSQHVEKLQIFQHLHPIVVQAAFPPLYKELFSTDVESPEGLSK
- assay.remarks: Gal4-RORγ-LBD UAS-luciferase reporter assay in TRex-CHO-K1 cells (doxycycline-stimulated)
- Format: cell-based
- cond: read-out: IC50 (μM, N=4) ROR-Gamma; library 2520
- Procedure: The Gal4-DBD-ROR-LBD fusion proteins were subcloned in the pcDNA4/TO expression vector (Thermo Scientific) and transfected into TRex-CHO-K1 cells (Thermo Scientific) for tetracycline-controlled expression of the corresponding ROR proteins. […] Luminescence was normalized by the fluorescence intensity and the percentage of inhibition was calculated with respect to control cells stimulated with doxycycline in the presence of solvent control (0.1% DMF). […]
Please respond with reported IC50 for every item in the list.
Give bare numbers, in µM.

Consider the reported IC50 for these compounds:
{"compound": "CCC(C(=O)NC1=NCC(Cc2ccc3ccccc3c2)N1CCC1CC2CCC1C2)c1ccccc1 (mixture of isomers)", "IC50 [µM]": 7.55}
{"compound": "CCC(C(=O)NC1=NCC(Cc2ccccc2)N1CC1CCCCC1)c1ccccc1 (mixture of isomers)", "IC50 [µM]": 4.8}
{"compound": "CCOc1ccc(C[C@H]2CN=C(NC(=O)Cc3ccc(OC)cc3)N2CC2CCCCC2)cc1", "IC50 [µM]": 5.17}
{"compound": "CCOc1ccc(C[C@H]2CN=C(NC(=O)C(C)C)N2CC2CCCCC2)cc1", "IC50 [µM]": 9.27}
{"compound": "CCOc1ccc(CC2CN=C(NC(=O)Cc3ccc(OC)cc3)N2CCC(C)c2ccccc2)cc1 (mixture of isomers)", "IC50 [µM]": 5.31}

Can you give me IC50 for all of these, one by one?
1. CC(C)C(=O)NC1=NCC(Cc2ccccc2)N1CCC(C)c1ccccc1 (mixture of isomers)
2. CCC(C(=O)NC1=NCC(C(C)CC)N1CC1CCCCC1)c1ccccc1 (mixture of isomers)

Out:
6.37
4.69

---

Please respond with reported % Inhibition RORγ 5 μg/ml for every item in the list.
- target.of.assay: RORγ (Mus musculus, UniProt P51450)
- Construct: mRORγ (Pro-261-end); expressed in transfected cells
- assay.remarks: Gal4-RORγ-LBD UAS-luciferase reporter assay in TRex-CHO-K1 cells (doxycycline-stimulated)
- Type: cell-based
- cond: individual controls 1295.201-307, 5 μg/ml, triplicate
Give bare numbers, in %.

Can you give me % Inhibition RORγ 5 μg/ml for all of these, one by one?
1. O=C(Cc1ccccc1)NC1=NC[C@H](Cc2ccccc2)N1CC1CCCCCC1 [1295.263]
2. CCC[C@H]1CN=C(NC(=O)Cc2ccccc2)N1CCc1ccccc1 [1295.215]
3. O=C(Cc1ccccc1)NC1=NC[C@@H](Cc2cccnc2)N1CCc1ccccc1 [1295.230]
4. COc1ccc(CCCN2C(NC(=O)Cc3ccccc3)=NC[C@H]2Cc2ccccc2)cc1OC [1295.247]
5. CCOc1ccc(C[C@@H]2CN=C(NC(=O)Cc3ccccc3)N2CCc2ccccc2)cc1 [1295.234]
6. CC(C)C[C@@H]1CN=C(NC(=O)Cc2ccccc2)N1CCc1ccccc1 [1295.211]
7. O=C(Cc1ccccc1)NC1=NC[C@H](Cc2ccccc2)N1CCc1ccccc1 [1295.291]

Out:
1. -8.4
2. 31.5
3. -16.0
4. 32.5
5. -7.7
6. 38.8
7. 5.6

Can you give me % Inhibition RORγ 5 μg/ml for all of these, one by one?
1. CC(CCN1C(NC(=O)Cc2ccccc2)=NCC1Cc1ccccc1)c1ccccc1 (mixture of isomers) [1295.236]
2. CC(C)CCC(=O)NC1=NC[C@H](Cc2ccccc2)N1CCc1ccccc1 [1295.297]

Out:
1. 26.8
2. 62.2

Attribution: paper PMC9029089
